For each of the binders below, state its IC50, inhibition of CSF-1 induced P-Tyr on CD115.
- study.system: native CD115 on OCI-AML5 cells (UniProt P07333 20-972, limits assumed)
- test.details: cell-based or functional assay
Could you give me the number in pM? Just the number is fine.

Prompt: Which IC50, inhibition of CSF-1 induced P-Tyr on CD115 is reported for this binder? CCK423A-IgG4κ (fully human) (antibody, V domains shown, also called Human IgG4κ; CCK423A-IgG4K) VH: QVQLEQSGAEVKRPGASVKVSCKASGYTFTGYYMHWVRQAPGQGLEWMGWINPNRGDTNYAQKFQGRVTMTRDTSISTAYMELSRLRSDDTAVYYCARDLEGGGPFDYWGQGTLVTVSS VL: DIVMTQTPLSLPVTPGEPASISCRSSQSLLDSDDGNTYLDWYLQKPGQSPQLLIYTLSYRASGVPDRFSGSGSGTDFTLKISRVEAEDVGVYYCMQRIEFPSTFGQGTRLEIK
Completion: 60

Prompt: Which IC50, inhibition of CSF-1 induced P-Tyr on CD115 is reported for this binder? CCK-423A (antibody, V domains shown, AlivaMab chimeric IgG, human kappa LC; also called AlivaMab CCK423A; AlivaMab Mouse CCK423A) VH: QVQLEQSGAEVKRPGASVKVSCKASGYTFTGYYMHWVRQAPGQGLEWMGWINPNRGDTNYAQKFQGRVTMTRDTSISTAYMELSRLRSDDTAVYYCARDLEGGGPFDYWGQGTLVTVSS VL: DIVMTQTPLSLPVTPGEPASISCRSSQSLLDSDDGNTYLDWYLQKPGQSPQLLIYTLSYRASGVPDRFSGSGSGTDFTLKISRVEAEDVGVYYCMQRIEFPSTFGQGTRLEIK
Completion: 58

Prompt: Which IC50, inhibition of CSF-1 induced P-Tyr on CD115 is reported for this binder? CCK423A-IgG2κ (fully human) (antibody, V domains shown, also called Human IgG2κ) VH: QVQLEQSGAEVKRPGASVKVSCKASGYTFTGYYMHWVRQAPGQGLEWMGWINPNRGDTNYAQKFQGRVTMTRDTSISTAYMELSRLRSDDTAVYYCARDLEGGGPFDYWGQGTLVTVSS VL: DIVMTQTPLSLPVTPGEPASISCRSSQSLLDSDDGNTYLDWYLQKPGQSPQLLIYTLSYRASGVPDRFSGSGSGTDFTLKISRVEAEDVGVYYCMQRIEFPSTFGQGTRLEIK
Completion: 59

Prompt: Which IC50, inhibition of CSF-1 induced P-Tyr on CD115 is reported for this binder? CCK423A-IgG1κ (fully human) (antibody, V domains shown, also called Human IgG1κ; CCK423A-I IgG1κ) VH: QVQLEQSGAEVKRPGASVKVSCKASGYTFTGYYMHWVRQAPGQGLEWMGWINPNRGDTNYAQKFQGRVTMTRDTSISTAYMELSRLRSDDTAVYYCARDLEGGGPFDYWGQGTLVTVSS VL: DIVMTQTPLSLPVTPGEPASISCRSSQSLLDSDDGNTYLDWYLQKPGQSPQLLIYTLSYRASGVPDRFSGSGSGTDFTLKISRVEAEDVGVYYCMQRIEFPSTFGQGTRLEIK
Completion: 68
